biological target: μ-opioid receptor (Homo sapiens (Human)); assay: μ-opioid receptor functional assay (U-2 OS cells); assay type: biochemical
REPORTED_METRIC: pEC50
Notebook: values listed as pEC50 are -log10 of the concentration (mol/L).

Inquiry: Request the reported pEC50 associated with COc1ccc2c(c1)[C@]13CCN(CC4CC4)[C@H](C2)[C@]12CC[C@@](Nc1ccccc1)(CO2)C3
Reply text: 8.00

Inquiry: Request the reported pEC50 associated with COc1ccc2c(c1)[C@]13CCN(CC4CC4)[C@H](C2)[C@]12CC[C@@](NC(=O)C1CC1)(CO2)C3
Reply text: 7.15

Inquiry: Request the reported pEC50 associated with N[C@]12CC[C@@]3(OC1)[C@H]1Cc4ccc(O)cc4[C@@]3(CCN1CC1CC1)C2
Reply text: 9.19

Inquiry: Request the reported pEC50 associated with COc1ccc2c(c1)[C@]13CCN(CC4CC4)[C@H](C2)[C@]12CC[C@@](NC(=O)CCc1ccccc1)(CO2)C3
Reply text: 8.86

Inquiry: Request the reported pEC50 associated with COc1ccc2c(c1)[C@]13CCN(CC4CC4)[C@H](C2)[C@]12CC[C@@](N1CCOCC1)(CO2)C3
Reply text: 6.83

Inquiry: Request the reported pEC50 associated with COc1ccc2c(c1)[C@]13CCN(CC4CC4)[C@H](C2)[C@]12CC[C@@](NC(=O)CC(F)(F)F)(CO2)C3
Reply text: 7.67

Inquiry: Request the reported pEC50 associated with COc1ccc2c(c1)[C@]13CCN(CC4CC4)[C@H](C2)[C@]12CC[C@@](N(C)C)(CO2)C3
Reply text: 6.47

* * *

target: recombinant human kappa opioid receptor (κ) (Homo sapiens (Human)); test: κ-opioid receptor radioligand dose-displacement binding assay (HEK-293 cells)
REPORTED_METRIC: pKi
Notebook: values listed as pKi are -log10 of the concentration (mol/L).

Inquiry: Request the reported pKi associated with CC(C)(C)C(=O)N[C@]12CC[C@@]3(OC1)[C@H]1Cc4ccc(O)cc4[C@@]3(CCN1CC1CC1)C2
Reply text: 10.23

Inquiry: Request the reported pKi associated with O=C1O[C@@]23CC[C@]1(O)C[C@@]21CCN(CC2CC2)[C@@H]3Cc2ccc(O)cc21
Reply text: 9.02

Inquiry: Request the reported pKi associated with COc1ccc2c(c1)[C@]13CCN(CC4CC4)[C@H](C2=O)[C@]12CC[C@](O)(C3)C(=O)O2
Reply text: 5.48

Inquiry: Request the reported pKi associated with O=C(N[C@]12CC[C@@]3(OC1)[C@H]1Cc4ccc(O)cc4[C@@]3(CCN1CC1CC1)C2)c1ccccc1
Reply text: 10.21

* * *

Would you mind telling me the reported Emax of each entry?
target: κ-opioid receptor (Homo sapiens (Human)); test: κ-opioid receptor functional assay (U-2 OS cells); type: biochemical; conditions: U-2 OS cells; relative to U69,593
The reply should consist of the numeric value with the unit placed after it.

Inquiry: Request the reported Emax associated with COc1ccc2c(c1)[C@]13CCN(CC4CC4)[C@H](C2)[C@]12CC[C@@](N)(CO2)C3
Reply text: 112%

Inquiry: Request the reported Emax associated with COc1ccc2c(c1)[C@]13CCN(CC4CC4)[C@H](C2)[C@]12CC[C@@](Nc1ccc(C(C)(C)C)cc1)(CO2)C3
Reply text: 113%

Inquiry: Request the reported Emax associated with COc1ccc2c(c1)[C@]13CCN(CC4CC4)[C@H](C2)[C@]12CC[C@@](N(Cc1ccccc1)Cc1ccccc1)(CO2)C3
Reply text: 112%
